System: Lolium perenne
Measurement protocol: Pre-emergence herbicidal assay, 96 cell trays, glasshouse
Type: in vivo
Cond: 168 h, second trial (Table 2), Lollium, 0.2 kg/ha, assessed 7 days after treatment, read-out: % control of plant growth
Measurement label: pest or weed control at 200 g/ha

Sure, the documented pest or weed control at 200 g/ha for CCOC(=O)C(C)N1C(=O)C2(CC2)Oc2cc(F)c(N3C(=O)C4=C(CCCC4)C3=O)cc21 (centres unmarked) [Example 18] is 80 to 100%

The value of pest or weed control at 200 g/ha measured for the compound O=C1c2ccc(F)cc2C(=O)N1c1cc2c(cc1F)OC1(CC1)C(=O)N2CC1CC1 [Example 26] turned out to be 80 to 100%

Just so you know, measured pest or weed control at 200 g/ha for C#CCN1C(=O)C2(CC2)Oc2cc(F)c(N3C(=O)CC(C)CC3=O)cc21 [Example 29] came out at 80 to 100%

# pest or weed control at 200 g/ha of COC(=O)C(C)N1C(=O)C2(CC2)Oc2cc(F)c(N3C(=O)C=C(C(F)(F)F)C3=O)cc21 (centres unmarked) [Example 17] = < 20%

What the record says about COCCN1C(=O)C2(CC2)Oc2cc(F)c(N3C(=O)c4ccc(F)cc4C3=O)cc21 [Example 27] : pest or weed control at 200 g/ha is 20 to 80%

The compound identified as C#CCN1C(=O)C2(CC2)Oc2cc(F)c(N3C(=O)C4CC4C3=O)cc21 (centres unmarked) [Example 13] registered its pest or weed control at 200 g/ha at < 20%

Input CCOC(=O)C(C)N1C(=O)C2(CC2)Oc2cc(F)c(N3C(=O)c4ccc(F)cc4C3=O)cc21 (centres unmarked) [Example 19] . Output pest or weed control at 200 g/ha: 20 to 80%

Form: compound = C#CCN1C(=O)C2(CC2)Oc2cc(F)c(/N=c3\sc(=O)n4n3CCCC4)cc21 [Example 31] ; pest or weed control at 200 g/ha = 80 to 100%

###

System: Stellaria media—Chickweed
Measurement protocol: Pre-emergence herbicidal assay, 96 cell trays, glasshouse
Format: in vivo
Cond: 168 h, second trial (Table 2), 1 kg/ha, assessed 7 days after treatment, read-out: % control of plant growth
Measurement label: pest or weed control at 1000 g/ha

C#CCN1C(=O)C2(CC2)Oc2cc(F)c(-n3c(=O)cc(C(F)(F)F)n(CCC)c3=O)cc21 [Example 43] has a reported pest or weed control at 1000 g/ha of 80 to 100%

pest or weed control at 1000 g/ha for COC(=O)C(C)N1C(=O)C2(CC2)Oc2cc(F)c(N3C(=O)C=C(C(F)(F)F)C3=O)cc21 (centres unmarked) [Example 17] is 20 to 80%

Query CCOC(=O)C(C)N1C(=O)C2(CC2)Oc2cc(F)c(N3C(=O)c4ccc(F)cc4C3=O)cc21 (centres unmarked) [Example 19] yields pest or weed control at 1000 g/ha of 80 to 100%

Sample O=C1c2ccc(F)cc2C(=O)N1c1cc2c(cc1F)OC1(CC1)C(=O)N2CC1CO1 (centres unmarked) [Example 36] ; pest or weed control at 1000 g/ha observed: 20 to 80%

Summary for this compound, C#CCN1C(=O)C2(CC2)Oc2cc(F)c(N3C(=O)c4ccc(F)cc4C3=O)cc21 [Example 5] : pest or weed control at 1000 g/ha is 80 to 100%

The measurements presented in this section are drawn from patent US11261177B2.
